molecular target: KDR endogenously expressed on human umbilical vein endothelial cells (HUVEC) (human, UniProt P35968 20-1356); test: cell-based or functional assay; further: test concentration or dose not given here
Sequence (P35968 20-1356): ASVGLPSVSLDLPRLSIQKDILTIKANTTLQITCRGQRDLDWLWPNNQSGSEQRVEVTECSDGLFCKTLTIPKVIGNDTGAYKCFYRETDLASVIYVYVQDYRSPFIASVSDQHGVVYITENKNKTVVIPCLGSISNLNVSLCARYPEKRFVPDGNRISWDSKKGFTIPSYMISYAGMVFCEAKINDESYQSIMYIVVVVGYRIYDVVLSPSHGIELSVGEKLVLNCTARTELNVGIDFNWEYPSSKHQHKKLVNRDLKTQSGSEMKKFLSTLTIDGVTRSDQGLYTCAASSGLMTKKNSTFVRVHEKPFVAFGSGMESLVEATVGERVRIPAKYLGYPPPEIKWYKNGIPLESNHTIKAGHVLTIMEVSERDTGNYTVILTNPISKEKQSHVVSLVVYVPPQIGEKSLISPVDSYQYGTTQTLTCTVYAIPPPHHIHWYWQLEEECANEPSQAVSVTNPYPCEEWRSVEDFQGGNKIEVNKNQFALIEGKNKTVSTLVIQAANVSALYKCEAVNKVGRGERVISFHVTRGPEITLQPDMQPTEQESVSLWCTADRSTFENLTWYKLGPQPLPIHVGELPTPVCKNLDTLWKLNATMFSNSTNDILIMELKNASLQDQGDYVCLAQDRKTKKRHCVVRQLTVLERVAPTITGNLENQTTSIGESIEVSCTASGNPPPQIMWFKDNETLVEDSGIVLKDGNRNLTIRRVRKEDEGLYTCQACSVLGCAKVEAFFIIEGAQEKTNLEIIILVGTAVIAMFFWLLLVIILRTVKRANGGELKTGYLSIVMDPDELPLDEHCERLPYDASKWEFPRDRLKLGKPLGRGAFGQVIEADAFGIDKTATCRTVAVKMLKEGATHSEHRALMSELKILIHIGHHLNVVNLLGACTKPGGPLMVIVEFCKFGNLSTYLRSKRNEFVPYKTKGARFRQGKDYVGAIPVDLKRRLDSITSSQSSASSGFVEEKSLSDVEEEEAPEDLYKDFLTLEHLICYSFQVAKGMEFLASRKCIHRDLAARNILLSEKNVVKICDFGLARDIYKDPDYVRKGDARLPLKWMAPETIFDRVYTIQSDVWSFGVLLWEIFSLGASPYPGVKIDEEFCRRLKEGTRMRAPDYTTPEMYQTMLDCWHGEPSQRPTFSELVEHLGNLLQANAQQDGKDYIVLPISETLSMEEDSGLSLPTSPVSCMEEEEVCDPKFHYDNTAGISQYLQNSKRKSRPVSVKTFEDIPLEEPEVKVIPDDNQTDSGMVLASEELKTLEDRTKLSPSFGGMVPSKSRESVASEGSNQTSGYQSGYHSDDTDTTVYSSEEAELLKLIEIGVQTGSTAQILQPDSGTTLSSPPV
MEASURE NAME: VEGF-E-mediated Survival % Inhibition (Average) (%)
A number alone suffices; assume %.

Some binders with known VEGF-E-mediated Survival % Inhibition (Average) results, for comparison:
22B8 (antibody, V domains shown, Fully human mAb from XenoMouse hybridoma, tested as hybridoma supernatant) VH: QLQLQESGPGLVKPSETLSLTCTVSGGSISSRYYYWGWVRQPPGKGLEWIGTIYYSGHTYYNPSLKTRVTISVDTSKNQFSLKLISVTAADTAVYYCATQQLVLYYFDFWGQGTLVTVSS VL: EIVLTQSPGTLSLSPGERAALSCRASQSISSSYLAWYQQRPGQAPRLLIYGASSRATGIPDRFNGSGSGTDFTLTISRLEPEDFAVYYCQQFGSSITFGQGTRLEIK : 55
33C3 (antibody, V domains shown, Fully human mAb from XenoMouse hybridoma, tested as hybridoma supernatant) VH: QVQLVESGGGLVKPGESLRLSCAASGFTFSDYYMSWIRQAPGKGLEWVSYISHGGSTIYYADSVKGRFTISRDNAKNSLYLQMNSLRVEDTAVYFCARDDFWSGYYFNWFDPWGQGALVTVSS VL: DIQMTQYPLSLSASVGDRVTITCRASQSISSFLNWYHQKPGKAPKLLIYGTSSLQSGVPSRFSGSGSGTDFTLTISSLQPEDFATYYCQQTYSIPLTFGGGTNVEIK : 74

Please turn your attention to the following entry.
Lab note: 30F6 (antibody, V domains shown, Fully human mAb from XenoMouse hybridoma, tested as hybridoma supernatant) VH: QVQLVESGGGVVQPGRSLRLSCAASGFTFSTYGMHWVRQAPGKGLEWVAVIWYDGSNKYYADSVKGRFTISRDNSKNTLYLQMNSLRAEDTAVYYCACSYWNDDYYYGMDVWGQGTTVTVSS VL: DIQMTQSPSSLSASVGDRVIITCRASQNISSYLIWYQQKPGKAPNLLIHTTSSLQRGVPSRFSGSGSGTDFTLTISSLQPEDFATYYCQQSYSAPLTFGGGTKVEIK gave VEGF-E-mediated Survival % Inhibition (Average) of 37
